This collection of values is drawn from patent US20240182453A1.

Target under test: human metabotropic Glutamate 4 receptor (mGluR4) (Homo sapiens (Human))
Sequence (Q14833 33-912): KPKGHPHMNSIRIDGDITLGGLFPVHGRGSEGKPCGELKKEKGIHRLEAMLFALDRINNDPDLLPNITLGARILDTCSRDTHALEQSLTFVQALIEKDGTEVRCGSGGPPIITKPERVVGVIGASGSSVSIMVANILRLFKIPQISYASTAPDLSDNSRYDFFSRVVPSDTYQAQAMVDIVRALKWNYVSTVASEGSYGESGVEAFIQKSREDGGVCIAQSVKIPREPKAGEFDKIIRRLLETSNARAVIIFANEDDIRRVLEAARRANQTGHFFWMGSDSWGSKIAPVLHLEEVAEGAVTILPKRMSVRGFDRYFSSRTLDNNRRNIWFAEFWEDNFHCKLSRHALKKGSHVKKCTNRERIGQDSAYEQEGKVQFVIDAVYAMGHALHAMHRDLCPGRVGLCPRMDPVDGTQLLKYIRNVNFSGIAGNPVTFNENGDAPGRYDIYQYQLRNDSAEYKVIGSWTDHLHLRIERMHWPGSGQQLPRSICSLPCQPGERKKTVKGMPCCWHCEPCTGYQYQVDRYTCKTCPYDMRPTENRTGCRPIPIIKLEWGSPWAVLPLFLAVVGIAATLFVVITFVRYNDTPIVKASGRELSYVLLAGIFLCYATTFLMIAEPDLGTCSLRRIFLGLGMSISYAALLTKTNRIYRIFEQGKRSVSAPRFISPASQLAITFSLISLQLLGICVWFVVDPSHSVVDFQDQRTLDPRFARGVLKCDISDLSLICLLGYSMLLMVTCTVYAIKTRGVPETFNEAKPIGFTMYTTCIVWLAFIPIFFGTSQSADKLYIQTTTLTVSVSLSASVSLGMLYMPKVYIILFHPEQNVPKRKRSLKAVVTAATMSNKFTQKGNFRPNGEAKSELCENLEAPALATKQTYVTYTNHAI
Experiment description: Assay A: in vitro testing of mGluR4 potency (glutamate-induced cAMP lowering, HTRF cAMP)
Assay type: cell-based
Particulars: HEK293 cells overexpressing human mGluR4; 10 uM L-glutamic acid, 1 uM forskolin; compounds of the present invention
Procedure: A. In Vitro Testing of mGluR4 Potency The in vitro activity of the compounds according to the invention may be investigated as follows: The HEK293 cell overexpressing the human metabotropic Glutamate 4 receptor are thawed at 37° C. and immediately diluted with cell culture medium. […] The emission at 615 nm and 665 nm (Excitation wavelength: 320 nm) are measured on the EnVision™ reader (Perkin Elmer). The ratio between the emission at 665 nm and 615 is calculated by the reader. […]
pIC50: −log10 of the molar value.
Criterion: pIC50 meeting or surpassing 8. Met: MET. Not met: NOT MET.

1) Cc1cnc(C(=O)N[C@H](c2nc3cc(Br)ccc3n2C)C2CC2)cn1 [Example 34] ... MET
2) COCCn1c(C(NC(=O)c2cnc(C)cn2)C2CCOC2)nc2cc(C(F)(F)F)ccc21 (single isomer, unassigned) [Example 87-1] ... NOT MET
3) Cc1cnc(C(=O)N[C@H](c2nc3cc(C(F)(F)F)ccc3n2C)[C@H]2CCCO2)cn1 (single isomer, unassigned) [Example 75] ... NOT MET
4) CO[C@H](C)[C@H](NC(=O)c1cnc(C)cn1)c1nc2cc(OC(F)(F)F)ccc2n1CCOC1CCC1 [Example 120] ... MET
5) COCCn1c([C@@H](NC(=O)c2cnc(C(F)(F)F)cn2)[C@@H](C)OC)nc2cc(OC(F)(F)F)ccc21 [Example 124] ... MET
6) CCn1c([C@@H](NC(=O)c2cnc(C)cn2)C(C)(C)O)nc2cc(F)c(F)cc21 [Example 50] ... NOT MET
